Molecular target: T1, Peptide 8: Biotin-AEAAAKEAAAKEAAAKEAAAKAAA-Tyr-acid (N-terminal biotin; C-terminal acid)
T1 construct: Control peptide without PC
T1 peptide: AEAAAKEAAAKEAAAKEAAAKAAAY
Experiment: scFv ELISA
Assay endpoint: OD450 (OD450)
State the answer as a number, implicitly in OD450.

Sample answers from the record:
{"Binder": "PcOxP_DB02_H09 (scFv, V domains shown, scFv in periplasmic extract) VH: EVQLLESGGGLVQPGGSLRLSCAASGFTFSSYYMEWVRQAPGKGLEWVAASRNKANDYTYEYADSVKGRFTISRDNSKNTLYLQMNSLRAEDTAVYYCARDYYESSYWYFDVWGQGTLVTVSS VL: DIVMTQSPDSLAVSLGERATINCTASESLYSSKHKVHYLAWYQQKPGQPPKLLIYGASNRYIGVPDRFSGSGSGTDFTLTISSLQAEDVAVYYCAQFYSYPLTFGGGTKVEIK", "Measurement units": "OD450", "Val": 0.04}
{"Binder": "PcOxP_DB04_E12 (scFv, V domains shown, scFv in periplasmic extract) VH: EVQLLESGGGLVQPGGSLRLSCAASGFTFSDFYMEWVRQAPGKGLEWVAASRNKANDYTTEYADSVKGRFTISRDNSKNTLYLQMNSLRAEDTAVYYCARDYYGSSYWYFDVWGQGTLVTVSS VL: DIVMTQSPDSLAVSLGERATINCTASESLYSSKHKVHYLAWYQQKPGQPPKLLIYGASNRVIGVPDRFSGSGSGTDFTLTISSLQAEDVAVYYCAQFYIYPLTFGGGTKVEIK", "Measurement units": "OD450", "Val": 0.05}

Prompt: Which OD450 value is on record for PcOxP_DB04_D01 (scFv, V domains shown, scFv in periplasmic extract) VH: EVQLLESGGGLVQPGGSLRLSCAASGFTFSDYYMEWVRQAPGKGLEWVAASRNKGNDYTTAYADSVKGRFTISRDNSKNTLYLQMNSLRAEDTAVYYCARDYYGSSYWYFDVWGQGTLVTVSS VL: DIVMTQSPDSLAVSLGERATINCTASESLYSSKHKVHYLAWYQQKPGQPPKLLIYGASQRYIGVPDRFSGSGSGTDFTLTISSLQAEDVAVYYCAQFYSYPLTFGGGTKVEIK ?
Response: 0.06
